Quick record: MIC, escherichia coli ATCC 9637.
One number for each entry, in µg/mL.

Examples from the recorded data:
Cc1ncc(NC(=O)N[C@@H](C(=O)N[C@@H]2C(=O)N3[C@@H]2SC(C)(C)[C@@H]3C(=O)O)c2ccc(O)cc2)c(O)n1 [B]: 2.5
CC1(C)S[C@@H]2[C@H](NC(=O)[C@H](NC(=O)Nc3cnc(Cc4ccc(Cl)cc4)nc3O)c3ccc(O)cc3)C(=O)N2[C@H]1C(=O)O [D]: 2.5

Request: For the compound CC1(C)S[C@@H]2[C@H](NC(=O)[C@H](NC(=O)Nc3cnc(Nc4ccccc4)nc3O)c3ccc(O)cc3)C(=O)N2[C@H]1C(=O)O [G] , give its reported MIC.
Response: 0.6

The reported measurements were obtained from patent US4241056A.
